measured on: OGA (Homo sapiens)
Construct: endogenous in cells; host or cells: HEK293 cells inducible for P301L mutant human Tau (isoform 2N4R)
Sequence (O60502 1-916): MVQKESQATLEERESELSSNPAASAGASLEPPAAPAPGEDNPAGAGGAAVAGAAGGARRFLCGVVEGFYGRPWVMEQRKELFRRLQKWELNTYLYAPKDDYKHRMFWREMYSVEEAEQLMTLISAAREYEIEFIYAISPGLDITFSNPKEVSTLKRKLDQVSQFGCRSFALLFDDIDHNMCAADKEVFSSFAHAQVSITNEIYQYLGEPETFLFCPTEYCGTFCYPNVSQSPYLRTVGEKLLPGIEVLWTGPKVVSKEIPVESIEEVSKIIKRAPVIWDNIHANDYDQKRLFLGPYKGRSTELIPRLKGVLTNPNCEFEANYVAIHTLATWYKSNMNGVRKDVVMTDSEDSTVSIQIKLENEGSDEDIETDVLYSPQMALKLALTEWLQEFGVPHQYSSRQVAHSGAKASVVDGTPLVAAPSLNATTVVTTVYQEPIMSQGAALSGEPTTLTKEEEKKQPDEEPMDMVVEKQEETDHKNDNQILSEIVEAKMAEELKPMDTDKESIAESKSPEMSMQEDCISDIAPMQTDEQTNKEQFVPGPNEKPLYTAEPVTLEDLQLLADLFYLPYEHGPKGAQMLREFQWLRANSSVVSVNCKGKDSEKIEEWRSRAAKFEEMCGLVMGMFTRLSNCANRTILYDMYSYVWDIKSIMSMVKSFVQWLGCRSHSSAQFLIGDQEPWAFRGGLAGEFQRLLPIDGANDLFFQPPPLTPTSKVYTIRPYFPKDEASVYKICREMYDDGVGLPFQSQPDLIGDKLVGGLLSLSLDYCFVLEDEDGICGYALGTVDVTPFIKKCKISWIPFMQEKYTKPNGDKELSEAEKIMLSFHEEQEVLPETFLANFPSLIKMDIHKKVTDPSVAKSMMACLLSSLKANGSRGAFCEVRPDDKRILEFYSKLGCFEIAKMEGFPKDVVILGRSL
protocol details: OGA cellular assay (ICC detection of O-GlcNAcylated proteins in HEK293 cells inducible for P301L mutant human Tau)
Type: cell-based
measurement conditions: HEK293 cells inducible for P301L mutant human Tau, 6 hours incubation, ICC O-GlcNAcylation; read-out: Cellular hOGA; pEC50 (converted)
quantity measured: EC50

Take a look at these entries with their results.
[[record]]
molecule = "Cc1cc(CC2(C)CCN(C(C)c3ccc4c(n3)OCCO4)C2)cc(C)n1 (stereo not shown)"
measured_on = "OGA (Homo sapiens)"
result = "> 1000 nM"

[[record]]
molecule = "COc1cc(OC[C@@H]2CCN(C(C)c3ccc4c(n3)OCCO4)C2)cc(C)n1 (stereo partly shown)"
measured_on = "OGA (Homo sapiens)"
result = "> 1000 nM"

[[record]]
molecule = "Cc1cc(C[C@@H]2CCN([C@@H](C)c3cc4c(cc3F)OCCO4)C2)cc(C)n1"
measured_on = "OGA (Homo sapiens)"
result = "100 nM"


Let us move to another entry and its EC50.
# get_value(readout='EC50', item= COc1cc(C[C@H]2CCN(C(C)c3nc4c(cc3F)OCCO4)C2)cc(C)n1 (stereo partly shown) )
126 nM

---

measured on: recombinant human Meningioma Expressed Antigen 5 (MGEA5), also referred to as O-GlcNAcase (OGA) (Homo sapiens, UniProt O60502)
Construct: Full length OGA enzyme was purchased at OriGene (cat #TP322411); purchased OriGene TP322411
protocol details: OGA biochemical assay (inhibition of FM-GlcNAc hydrolysis, fluorescence)
measurement conditions: FM-GlcNAc substrate, 6 h at room temperature, read-out: Enzymatic hOGA, pIC50 (converted)
For each record, write down the corresponding IC50.
Quick note: unit goes after the number.

Take a look at these entries with their results.
[[record]]
molecule = "Cc1cc(O[C@@H]2CCN(C(C)c3nc4c(cc3F)OCCO4)C2)ccn1 (stereo partly drawn)"
result = "158 nM"

[[record]]
molecule = "Cc1cc(OCC2(C)CCN(C(C)c3ccc4c(n3)OCCO4)C2)cc(C)n1 (stereo not drawn)"
result = "794 nM"

[[record]]
molecule = "Cc1cc(C[C@@H]2CCN(C(C)c3nc4c(cc3F)OCCO4)C2)cc(C)n1 (single isomer, unassigned) [Product 52]"
result = "6.31 nM"

[[record]]
molecule = "Cc1cnc(C[C@H]2CCN(C(C)c3ccc4c(n3)OCCO4)C2)c(C)n1 (single isomer, unassigned) [Product 25]"
result = "158 nM"

[[record]]
molecule = "Cc1cc(C[C@@H]2CCN([C@H](C)c3ccc4c(n3)OCCO4)C2)cc(C)n1 (single isomer, unassigned) [Product 104]"
result = "63.1 nM"

[[record]]
molecule = "COc1cc(C[C@@]2(C)CCN([C@H](C)c3ccc4c(n3)OCCO4)C2)cc(C)n1 (single isomer, unassigned)"
result = "1000 nM"

[[record]]
molecule = "Cc1ccc(O[C@H]2CCN(C(C)c3nc4c(cc3F)OCCO4)C2)cn1 (stereo partly drawn)"
result = "316 nM"

[[record]]
molecule = "COc1cc(CC2(C)CCN(C(C)c3ccc4c(n3)OCCO4)C2)cc(C)n1 (single isomer, unassigned) [Product 95]"
result = "79.4 nM"


# get_value(readout='IC50', item= CC(c1cc2c(cc1F)OCCO2)N1CC[C@H](Cc2ncc(F)cc2F)C1 (single isomer, unassigned) [Product 28] )
5010 nM
